- System: HepG2-A16-CD81EGFP cells
- condition.set: nominal 1 uM (10 mM stock); […] for 15 mM, 1.2 uM for 12 mM, 2 uM for 20 mM stock; average of 2 wells; repeat 2
metric.name: HepG2 viability signal, 1 uM, repeat 2 (%)

>>> observed_result("Cn1nc(C(=O)NCC(=O)N2CCCCCCNC(=O)CC2c2ccccc2)c2ccccc21 (centres unmarked)")
105.85
>>> observed_result("O=C1NCc2ccccc2CC12CCCN(Cc1ccccc1)C2 (centres unmarked)")
103.34
>>> observed_result("CC1=C(C(=O)Nc2ccc(C)cc2C)C(c2cc(Br)ccc2F)n2ncc(C(=O)Nc3ccc(C)cc3)c2N1 (centres unmarked)")
98.10
>>> observed_result("COc1ccc(-n2nc(C)c([C@@H]3C=C[C@@H](NCc4cccc(Cl)c4)C3)c2C)cc1")
103.31
>>> observed_result("COc1ccc(-c2cc(=O)oc3c4c(ccc23)OCN(Cc2ccccc2)C4)cc1")
95.59
>>> observed_result("COc1ccc(Nc2cnc3ccc(-c4ccc(OC)c(OC)c4)nn23)cc1")
100.79
>>> observed_result("CN1c2cc(C(=O)Nc3ccc(C(F)(F)F)cc3)ccc2C(=O)N2CCCCC21 (centres unmarked)")
105.25
>>> observed_result("Cc1ccc([S+](=O)([O-])N2CCC(OC3CCN(Cc4ccccc4)CC3)CC2)c(C)c1")
105.13

====

- assay.text: in vitro
- condition.set: human, hepg2 cells
As shown below, each of these molecules has a reported CC50 at 48 h value.
metric.name: CC50 at 48 h

>>> observed_result("CCOc1ccc2nc(C)cc(Nc3ccc4c(c3)OCCO4)c2c1")
"38.5 µM"
>>> observed_result("Cc1cc(N2CCC(N(C)C3CCCC3)CC2)nc2cc(O)ccc12")
"> 57 µM"
>>> observed_result("COc1cccc(-c2noc(CCCc3nc(-c4cccnn4)no3)n2)c1")
"30.6 µM"
>>> observed_result("CCOC(=O)c1sc(NC(=O)CNCc2ccccn2)c(C(=O)OCC)c1C")
"43.2 µM"
>>> observed_result("SC(=Nc1ccncc1)NCc1ccccc1")
"27.3 µM"
>>> observed_result("O=C(Nc1cccc(C(F)(F)F)c1)C1CCN([S+](=O)([O-])c2cccc3nsnc23)CC1")
"43.2 µM"
>>> observed_result("OC(CNCCc1ccccc1)COc1ccc(OCC(O)CNCCc2ccccc2)cc1 (centres unmarked)")
"43.2 µM"
>>> observed_result("O=C(Nc1ccc(Oc2cccc(C(F)(F)F)c2)nc1)c1cccs1")
"17.2 µM"
>>> observed_result("CCOc1ccc(Nc2nc(NCC3CCCO3)c3ccccc3n2)cc1 (centres unmarked)")
"43.2 µM"
>>> observed_result("O=C(c1n[nH]c2c1CCCC2)N1CCC(n2cc(-c3nc(-c4ccccc4)no3)nn2)CC1")
"30.6 µM"
>>> observed_result("Cc1cccnc1Nc1nc(-c2ccccn2)cs1")
"1.09 µM"

====

- assay.text: Rat liver microsomal stability (RLMS)
- condition.set: rat, rat liver microsomes
metric.name: half-life

>>> observed_result("CCCN1C(CC(C)C)=NS(=O)(=O)c2cc(NC(=O)c3cccs3)ccc21")
"5 min"
>>> observed_result("CCCN1C(CC2CCCCC2)=NS(=O)(=O)c2cc(NC(=O)c3ccc(F)cc3)ccc21")
"> 30 min"
>>> observed_result("CCCN1C(CC(C)C)=NS(=O)(=O)c2cc(NC(=O)c3sccc3F)ccc21")
"4.6 min"
>>> observed_result("CCCN1C(CC(C)C)=NS(=O)(=O)c2cc(NC(=O)C3CCCC3)ccc21")
"4.8 min"
>>> observed_result("CC(C)CC1=NS(=O)(=O)c2cc(NC(=O)c3ccc(F)s3)ccc2N1C")
"> 30 min"
>>> observed_result("CCCN1C(c2ccccc2)=NS(=O)(=O)c2cc(NC(=O)c3cccs3)ccc21")
"22.6 min"
>>> observed_result("CCCN1C(CC(C)C)=NS(=O)(=O)c2cc(NC(=O)c3ccc(F)cc3)ccc21")
"6.3 min"
>>> observed_result("CCCN1C(CC(C)C)=NS(=O)(=O)c2cc(NC(=O)c3ccc(F)s3)ccc21")
"4.4 min"
>>> observed_result("CN1C(CC2CCCCC2)=NS(=O)(=O)c2cc(NC(=O)c3ccc(F)s3)ccc21")
"12.9 min"
>>> observed_result("CN1C(c2ccccc2)=NS(=O)(=O)c2cc(NC(=O)c3ccc(F)s3)ccc21")
"> 30 min"
>>> observed_result("CCCN1C(c2ccccc2)=NS(=O)(=O)c2cc(NC(=O)c3ccc(F)cc3)ccc21")
"> 30 min"
>>> observed_result("CCCN1C(CC(C)C)=NS(=O)(=O)c2cc(NC(=O)c3sccc3Cl)ccc21")
"2.8 min"
>>> observed_result("CCCN1C(CC2CCCCC2)=NS(=O)(=O)c2cc(NC(=O)c3cccs3)ccc21")
"3.4 min"
>>> observed_result("CN1C(c2ccccc2)=NS(=O)(=O)c2cc(NC(=O)c3ccc(F)cc3)ccc21")
"> 30 min"
>>> observed_result("CC(C)CC1=NS(=O)(=O)c2cc(NC(=O)c3cccs3)ccc2N1C")
"> 30 min"
>>> observed_result("CN1C(CC2CCCCC2)=NS(=O)(=O)c2cc(NC(=O)c3ccc(F)cc3)ccc21")
"6.6 min"
>>> observed_result("CCCN1C(CC(C)C)=NS(=O)(=O)c2cc(NC(=O)c3ccsc3)ccc21")
"3.7 min"
>>> observed_result("CCCN1C(CC(C)C)=NS(=O)(=O)c2cc(NC(=O)c3ccc(Cl)cc3)ccc21")
"4.1 min"
>>> observed_result("CCCN1C(CC(C)C)=NS(=O)(=O)c2cc(NC(=O)c3ccc(Cl)s3)ccc21")
"3.8 min"
>>> observed_result("CCCN1C(CC(C)C)=NS(=O)(=O)c2cc(NC(=O)c3sccc3C)ccc21")
"3.4 min"
>>> observed_result("CCCN1C(CC(C)C)=NS(=O)(=O)c2cc(NC(=O)Nc3nccs3)ccc21")
"7.8 min"
>>> observed_result("CC(C)CC1=NS(=O)(=O)c2cc(NC(=O)c3ccc(F)cc3)ccc2N1C")
"> 30 min"
>>> observed_result("CCCN1C(CC2CCC2)=NS(=O)(=O)c2cc(NC(=O)c3cccs3)ccc21")
"4.3 min"

====

Measured viability at 48 h, 1 µM of individual entries
- assay.text: in vitro
- condition.set: human, HepG2-A16-CD81EGFP cells, uninfected
metric.name: viability at 48 h, 1 µM (%)

>>> observed_result("COc1ccc2[nH]c(C[C@@H]3C[C@@H](C(C)C)[C@H](CNCc4ccccc4OC)C=C3C)nc2c1")
99
>>> observed_result("CCc1ccc2c(c1)C1(NN=C(c3ccc(C)cc3)S1)C(=O)N2 (centres unmarked)")
115
>>> observed_result("C=C(C)COc1ccc(-c2ncnc(C(F)(F)F)c2-c2ccccc2)c(O)c1")
104
>>> observed_result("O=C(c1cnn2c(C(F)F)cc(-c3ccccc3)nc12)N1CCCCC1c1cccnc1 (centres unmarked)")
102
>>> observed_result("CCCSc1ccc([C@H]2N[C@@](Cc3ccccc3)(C(=O)OC)[C@H]3C(=O)N(CC)C(=O)[C@@H]23)cc1")
109
>>> observed_result("CC(C)N1C(=S)N(Cc2ccco2)C(=O)C1CC(=O)Nc1ccccc1 (centres unmarked)")
99
>>> observed_result("Cc1cccc(Nc2nc(NCc3ccco3)c3ccccc3n2)c1")
89
>>> observed_result("Cc1cnc(CC2CCN([S+](=O)([O-])c3ccccc3)CC2)n1Cc1ccccc1")
94.7
>>> observed_result("Cc1ccccc1CC(=O)NCc1nnc2cc(-c3nc(C4CC4)no3)ccn12")
109
>>> observed_result("Oc1ccccc1CN1CCCC(N2CCN(c3cccc(C(F)(F)F)c3)CC2)C1 (centres unmarked)")
103
>>> observed_result("CC(C)c1ccccc1Oc1c(C(F)(F)F)oc2c(CN3CCN(C)CC3)c(O)ccc2c1=O")
101
>>> observed_result("Cc1ccc(C(=O)Nc2nc(-c3ccccn3)cs2)cc1[S+](=O)([O-])N1CCOCC1.O=C(O)C(F)(F)F")
73
>>> observed_result("COc1cc(C(=O)NC2CCCc3c2[nH]c2c(Cl)cccc32)cc(OC)c1OC (centres unmarked)")
101
>>> observed_result("COc1ccc(NC2=NC3(CCCCC3)N=C(N)N2)cc1")
113
>>> observed_result("Cc1c(O)c(CN2CCCC2)cc2c1oc(=O)c1ccccc12")
108
>>> observed_result("O=c1c(=Cc2ccco2)sc2n1CN(c1cccc(Br)c1)CN=2")
103
>>> observed_result("COc1ccc(C2C(C(=O)N3CCCCC3)CC(=O)N2c2ccc(OC)cc2)cc1 (centres unmarked)")
85

====

- assay.text: in vitro
- condition.set: human, hepg2; n = 1
metric.name: CC50 at 48 h (µM)

>>> observed_result("CC1=C[C@@H](CNCc2cccnc2)[C@H](C(C)C)C[C@H]1Cc1nnc(-c2ccc([N+](=O)[O-])cc2)o1")
24.3
>>> observed_result("O=C1NC2(CCCN(Cc3ccccn3)C2)COc2ccccc21 (centres unmarked)")
3.14
>>> observed_result("C=C1C(=O)OC2CC(C)C3C=CC(=O)C3(C)C(O)C12 (centres unmarked)")
15.3
>>> observed_result("C=C1C(=O)O[C@@H]2C[C@@H](C)[C@@H]3C=CC(=O)[C@@]3(C)[C@@H](OC(=O)CC(=O)O[C@H]3[C@@H]4C(=C)C(=O)O[C@@H]4C[C@@H](C)[C@@H]4C=CC(=O)[C@]43C)[C@H]12")
10.9
>>> observed_result("CC1CCN(S(=O)(=O)c2ccc3c(c2)C(=NO)c2cc(S(=O)(=O)N4CCC(C)CC4)ccc2-3)CC1")
21.7
